Target: human full length HSD11 β 1 (Homo sapiens, UniProt P28845)
Construct: transient expression of human full length HSD11 β 1 expression vector; host or cells: CHO cells (transient transfection)
Sequence (P28845 whole entry): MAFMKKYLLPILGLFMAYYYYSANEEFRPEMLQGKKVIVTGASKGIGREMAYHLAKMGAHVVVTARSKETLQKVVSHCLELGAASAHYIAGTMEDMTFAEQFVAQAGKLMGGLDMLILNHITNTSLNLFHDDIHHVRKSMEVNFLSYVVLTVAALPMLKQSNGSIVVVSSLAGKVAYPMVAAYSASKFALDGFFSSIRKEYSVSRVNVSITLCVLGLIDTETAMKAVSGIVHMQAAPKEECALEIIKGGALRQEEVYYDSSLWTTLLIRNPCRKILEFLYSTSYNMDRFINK
Test: In Vitro HSD11β1 Inhibition Assay
Assay type: cell-based
Conditions: CHO cells transiently expressing human HSD11β1; 200 nM cortisone+500 uM NADPH overnight; cortisone to cortisol by LC/MS-MS; read-out: 11βHSD1 (IC50)
Description: In Vitro HSD11β1 Inhibition Assay: CHO cells were maintained in Dulbecco's modified Eagle's medium/nutrient mixture F-12 containing 5% fetal bovine serum (v/v) and 2 mM glutamine. Cells were cultured at 37° C. with 5% CO2. […] The enzymatic activity or inhibition of enzyme activity was measured by estimating the conversion of cortisone to cortisol by LC/MS-MS method. The IC50 in nM was calculated from an 8 point log scale of concentration versus inhibition.
IC50 values for the molecules below.

Known results for molecules:
{"molecule": "CC(CC(=O)N1CCCC2C(C(=O)O)CCCC21)c1cn(C)c2cccc(C3CC3)c12 (single isomer, unassigned) [Compound 212]", "result": "> 250 nM"}
{"molecule": "Cc1cccc2c1c(CCC(=O)N1CCCC3CCCCC31)cn2C1CC1 (stereo not drawn)", "result": "100 to 150 nM"}
{"molecule": "O=C(CCc1c[nH]c2cccc(F)c12)N1CCOC2CCCCC21 (stereo not drawn)", "result": "< 100 nM"}

Note down IC50 recorded for CC(CC(=O)N1CCOC2CCCCC21)c1c[nH]c2cccc(F)c12 (single isomer, unassigned) [Example 138]
150 to 200 nM

Give the measured IC50 for CC(CC(=O)N1CCCC2C(C(=O)O)CCCC21)c1c[nH]c2cccc(-c3cccc(F)c3)c12 (stereo not drawn)
150 to 200 nM

Consider the molecule CC(CC(=O)N1CCCC2C(C(=O)O)CCCC21)c1c[nH]c2cccc(C3CC3)c12 (stereo not drawn) [Compound 190] and give its recorded IC50.
< 100 nM

Recall and state the measured IC50 for O=C(O)C1CCN(C(=O)CC(c2ccccc2)c2c[nH]c3cccc(Cl)c23)C2CCCCC12 (stereo not drawn) .
> 250 nM

Fill in reported IC50 for this entry: CC(CC(=O)N1CCCC2C(C(=O)O)CCCC21)c1c[nH]c2nccc(C3CC3)c12 (stereo not drawn)
> 250 nM

For the molecule CC(C)(c1c[nH]c2ccccc12)C(C#N)C(=O)N1CCCC2CCCCC21 (stereo not drawn) , report IC50.
> 250 nM

====

Target: human full length HSD11 β 1 (Homo sapiens, UniProt P28845)
Construct: transient expression of human full length HSD11 β 1 expression vector; host or cells: CHO cells (transient transfection)
Assay: In Vitro HSD11β1 Inhibition Assay
Assay type: cell-based
Conditions: CHO cells transiently expressing human HSD11β1; 200 nM cortisone+500 uM NADPH overnight; cortisone to cortisol by LC/MS-MS; read-out: 11βHSD1 (IC50)
Each record here notes measured IC50.

The cases that follow already have their IC50 on record.
{"molecule": "CC(C)C(CC(=O)N1CCCC2(C)CCCCC12)c1c[nH]c2cccc(F)c12 (stereo not shown) [Example 112]", "IC50": "< 100 nM"}
{"molecule": "O=C(CCc1c[nH]c2ccccc12)N1CCCC2CCCCC21 (stereo not shown) [Example 93]", "IC50": "< 100 nM"}
{"molecule": "CC(CC(=O)N1CCCC2C(C(=O)O)CCCC21)c1c[nH]c2cccc(-c3ncccc3F)c12 (stereo not shown) [Compound 262]", "IC50": "> 250 nM"}
{"molecule": "CC(CC(=O)N1CCCC2C(C(=O)O)CCCC21)c1cn(C)c2cccc(-c3ccco3)c12 (stereo not shown) [Compound 216]", "IC50": "< 100 nM"}

Report IC50, nothing else, for this molecule: O=C(CCc1nc2ccccc2s1)N1CCOC2CCCCC21 (stereo not shown) [Example 80]
> 250 nM

Report IC50, nothing else, for this molecule: O=C(CCc1c[nH]c2ccccc12)N1CCCC2CCCCC21 (single isomer, unassigned) [Compound 52]
> 250 nM

Fill in reported IC50 for this entry: CC(CC(=O)N1CCC(=O)C2CCCCC21)c1c[nH]c2ccccc12 (stereo not shown) [Example 103]
> 250 nM

Please supply the value of reported IC50 for the item CC(CC(=O)N1CCCC2C(C(=O)O)CCCC21)c1c[nH]c2cccc(C3CC3)c12 (single isomer, unassigned) [Compound 198]
100 to 150 nM

Identify measured IC50 associated with O=C(O)C1CCN(C(=O)CC(c2ccccc2)c2c[nH]c3cc(F)ccc23)C2CCCCC12 (single isomer, unassigned) [Example 160]
> 250 nM
